- TEST: Stability in PBS at pH 7.4 assessed as half life at 1.5 mM by HPLC
- Format: physicochemical
- REPORTED CONDITIONS: buffer, pH 7.4, 1500 µM
QUANTITY MEASURED: t1/2 (h)

smiles=C[C@@]12c3ccc4c(c3C(=O)c3occ(c31)C(=O)C[C@H]2O)CCC4=O value_measured=0.433
smiles=C[C@]12C(=C(O)C(=O)c3c1ccc1c3CCC1=O)/C(=C/NCC(=O)O)C(=O)C[C@H]2OC(=O)CCC(=O)O value_measured=3.63
smiles=COC[C@H]1OC(=O)c2coc3c2[C@@]1(C)C1=C(C3=O)[C@@H]2CCC(=O)[C@@]2(C)C[C@H]1OC(C)=O value_measured=57.83
smiles=C[C@@]12c3ccc4c(c3C(=O)c3occ(c31)C(=O)C[C@H]2OC(=O)CCC(=O)O)CCC4=O value_measured=2
